# METHOD_SUMMARY: Cmax in Sprague-Dawley rat at 1 mg/kg, iv measured upto 24 hrs by LC-MS/MS analysis
# Format: ADME, organism-based
# Design: dose 1 mg/kg, time < 24 hrs, route iv
# CONDITION_PARAMETERS: in vivo
PROPERTY_MEASURED: Cmax (ng/mL)

Here is how some compounds turned out for Cmax.
Cc1cc(F)c(C(=O)Nc2cccc(-c3nncn3C(C)C)n2)cc1-n1cnc(C2CC2)c1 ... 3030
O=C1COc2cc(F)c(C(=O)Nc3cccc(-c4nncn4-c4ccccc4)n3)cc2N1 ... 1580
CC(C)n1cnnc1-c1cccc(NC(=O)c2cc3c(cc2F)C(C)(C)CC(=O)N3C)n1 ... 418

I. O=C(Nc1cccc(-c2nncn2CC2CC2)c1)c1cc2c(cc1F)OCc1cncn1-2
II. O=C1CCCc2cc(F)c(C(=O)Nc3cccc(-c4nncn4C4CC4)n3)cc2N1
Task: Of I and II , which one carries the higher reported Cmax? Please reply using the label of the selected record.
Result: II
(II: 1220 ng/mL, I: 812 ng/mL)

1. O=C1COc2cc(F)c(C(=O)Nc3cccc(-c4nncn4C4CCCC4)n3)cc2N1
2. CC(CO)n1cnnc1-c1cccc(NC(=O)c2cc3c(cc2F)OCC(=O)N3)n1 (stereo not drawn)
Task: Of 1 and 2 , which one carries the higher reported Cmax? Please reply using the label of the selected record.
Result: 1

P. CN1C(=O)CCCc2cc(F)c(C(=O)Nc3cccc(-c4nncn4C4CC4)n3)cc21
Q. CC(C)n1cnnc1-c1cccc(NC(=O)c2cc3c(cc2F)CCC(=O)N3)n1
Task: // task: argmin of Cmax over [ P , Q ] Please reply using the label of the selected record.
Result: P

====

# METHOD_SUMMARY: Cmax in Sprague-Dawley rat at 2.5 mg/kg, po measured upto 24 hrs by LC-MS/MS analysis
# Format: ADME, organism-based
# Set-up: dose 2.5 mg/kg, time < 24 hrs, route po
# CONDITION_PARAMETERS: in vivo
PROPERTY_MEASURED: Cmax (ng/mL)

CC(C)n1cnnc1-c1cccc(NC(=O)c2cc3c(cc2F)OC(C)(C)C(=O)N3C)n1 ... 417

a. CC(C)n1cnnc1-c1cccc(NC(=O)c2cc3c(cc2F)OC(C)(C)C(=O)N3)n1
b. O=C1COc2cc(F)c(C(=O)Nc3cccc(-c4nncn4C4CC4)n3)cc2N1
c. O=C1CCc2cc(F)c(C(=O)Nc3cccc(-c4nncn4C4CC4)n3)cc2N1
Task: // smallest Cmax at index 0, largest at the end # format: label list in the order the request specifies
Result: c, a, b

====

# METHOD_SUMMARY: Half life in Sprague-Dawley rat at 5 mg/kg, po measured upto 24 hrs by LC-MS/MS analysis
# Assay type: ADME, organism-based
# CONDITION_PARAMETERS: in vivo
PROPERTY_MEASURED: half-life (h)

O=C1COc2cc(F)c(C(=O)Nc3cccc(-c4nncn4C4CCCC4)n3)cc2N1 ... 2.36

I. CC(C)n1cnnc1-c1cccc(NC(=O)c2cc3c(cc2F)CCC(=O)N3C)n1
II. CN1C(=O)CCCc2cc(F)c(C(=O)Nc3cccc(-c4nncn4C4CC4)n3)cc21
Task: Of I and II , which one carries the higher reported half-life? Please reply using the label of the selected record.
Result: II

P. O=C(Nc1cccc(-c2nncn2CC2CC2)n1)c1cc2c(cc1F)OCc1cncn1-2
Q. CC(CO)n1cnnc1-c1cccc(NC(=O)c2cc3c(cc2F)OCC(=O)N3)n1 (stereo not given)
Task: // task: argmin of half-life over [ P , Q ] Please reply using the label of the selected record.
Result: P

====

# METHOD_SUMMARY: Cmax in Sprague-Dawley rat at 5 mg/kg, po measured upto 24 hrs by LC-MS/MS analysis
# Type: ADME, organism-based
# Set-up: dose 5 mg/kg, time < 24 hrs, route po
# CONDITION_PARAMETERS: in vivo
PROPERTY_MEASURED: Cmax (ng/mL)

CC(C)n1cnnc1-c1cccc(NC(=O)c2cc3c(cc2F)CCC(=O)N3)n1 ... 334

1. CC(C)n1cnnc1-c1cccc(NC(=O)c2cc3c(cc2F)OCC(=O)N3)n1
2. CC(C)n1cnnc1-c1cccc(NC(=O)c2cc3c(cc2F)CCCC(=O)N3C)c1
3. CC(C)n1cnnc1-c1cccc(NC(=O)c2cc3c(cc2F)CCC(=O)N3)c1
Task: # rank_down: sort by Cmax, max first # format: label list in the order the request specifies
Result: 1, 2, 3
(1: 1260 ng/mL, 2: 341 ng/mL, 3: 58 ng/mL)

====

# METHOD_SUMMARY: Cmax in Sprague-Dawley rat at 5 mg/kg, po measured upto 24 hrs by LC-MS/MS analysis
# Format: ADME, organism-based
# Set-up: dose 5 mg/kg, time < 24 hrs, route po
# CONDITION_PARAMETERS: in vivo
PROPERTY_MEASURED: Cmax (ng/mL)

Here is how some molecules turned out for Cmax.
CC(C)n1cnnc1-c1cccc(NC(=O)c2cc3c(cc2F)C(C)(C)CC(=O)N3)n1 ... 1420
O=C(Nc1cccc(-c2nncn2CC2CC2)n1)c1cc2c(cc1F)OCc1cncn1-2 ... 3520
CC(C)n1cnnc1-c1cccc(NC(=O)c2cc3c(cc2F)CCCC(=O)N3)n1 ... 1270

a. O=C1COc2cc(F)c(C(=O)Nc3cccc(-c4nncn4-c4ccccc4)n3)cc2N1
b. CC(C)n1cnnc1-c1cccc(NC(=O)c2cc3c(cc2F)OCc2cncn2-3)c1
Task: Of a and b , which one carries the higher reported Cmax? Please reply using the label of the selected record.
Result: a
(a: 3000 ng/mL, b: 445 ng/mL)

a. CN1C(=O)CCCc2cc(F)c(C(=O)Nc3cccc(-c4nncn4C4CC4)n3)cc21
b. O=C1CCCc2cc(F)c(C(=O)Nc3cccc(-c4nncn4C4CC4)n3)cc2N1
Task: // task: argmin of Cmax over [ a , b ] Please reply using the label of the selected record.
Result: b
(b: 829 ng/mL, a: 1850 ng/mL)

P. CC(C)n1cnnc1-c1cccc(NC(=O)c2cc3c(cc2F)OCC(=O)N3C)n1
Q. O=C(Nc1cccc(-c2nncn2CC2CC2)c1)c1cc2c(cc1F)OCc1cncn1-2
Task: // task: argmin of Cmax over [ P , Q ] Please reply using the label of the selected record.
Result: Q

====

# METHOD_SUMMARY: Oral bioavailability in Sprague-Dawley rat at 5 mg/kg measured upto 24 hrs by LC-MS/MS analysis
# Type: ADME, organism-based
# CONDITION_PARAMETERS: in vivo
PROPERTY_MEASURED: bioavailability (%)

Here is how some molecules turned out for bioavailability.
O=C(Nc1cccc(-c2nncn2CC2CC2)c1)c1cc2c(cc1F)OCc1cncn1-2 ... 40.2
CC(C)n1cnnc1-c1cccc(NC(=O)c2cc3c(cc2F)CCCC(=O)N3C)c1 ... 33.2
CC(C)n1cnnc1-c1cccc(NC(=O)c2cc3c(cc2F)OCC(=O)N3)n1 ... 56.4
CC(C)n1cnnc1-c1cccc(NC(=O)c2cc3c(cc2F)CCCC(=O)N3)n1 ... 77.7
CC(C)n1cnnc1-c1cccc(NC(=O)c2cc3c(cc2F)CCCC(=O)N3)c1 ... 16
O=C1COc2cc(F)c(C(=O)Nc3cccc(-c4nncn4C4CCCC4)n3)cc2N1 ... 77.7

P. CC(C)n1cnnc1-c1cccc(NC(=O)c2cc3c(cc2F)OCc2cncn2-3)c1
Q. CC(C)n1cnnc1-c1cccc(NC(=O)c2cc3c(cc2F)CCC(=O)N3)c1
R. CC(CO)n1cnnc1-c1cccc(NC(=O)c2cc3c(cc2F)OCC(=O)N3)n1 (stereo not given)
S. CC(C)n1cnnc1-c1cccc(NC(=O)c2cc3c(cc2F)C(C)(C)CC(=O)N3C)n1
Task: // smallest bioavailability at index 0, largest at the end # format: label list in the order the request specifies
Result: R, Q, P, S

====

# METHOD_SUMMARY: AUClast in Sprague-Dawley rat at 1 mg/kg, iv measured upto 24 hrs by LC-MS/MS analysis
# Type: ADME, organism-based
# Design: dose 1 mg/kg, time < 24 hrs, route iv
# CONDITION_PARAMETERS: in vivo
PROPERTY_MEASURED: AUC(0-t) at 24 h (ng·h/mL)

O=C1COc2cc(F)c(C(=O)Nc3cccc(-c4nncn4-c4ccccc4)n3)cc2N1 ... 5070
CC(C)n1cnnc1-c1cccc(NC(=O)c2cc3c(cc2F)OCc2cncn2-3)n1 ... 529
CC(C)n1cnnc1-c1cccc(NC(=O)c2cc3c(cc2F)CCC(=O)N3)n1 ... 1260
CC(C)n1cnnc1-c1cccc(NC(=O)c2cc3c(cc2F)C(C)(C)CC(=O)N3C)n1 ... 789
CC(C)n1cnnc1-c1cccc(NC(=O)c2cc3c(cc2F)CCC(=O)N3C)n1 ... 668
CN1C(=O)CCCc2cc(F)c(C(=O)Nc3cccc(-c4nncn4C4CC4)n3)cc21 ... 1340
O=C1COc2cc(F)c(C(=O)Nc3cccc(-c4nncn4C4CCCC4)n3)cc2N1 ... 919
CC(C)n1cnnc1-c1cccc(NC(=O)c2cc3c(cc2F)OCc2cncn2-3)c1 ... 329

P. CC(CO)n1cnnc1-c1cccc(NC(=O)c2cc3c(cc2F)OCC(=O)N3)n1 (configuration not stated)
Q. CC(C)n1cnnc1-c1cccc(NC(=O)c2cc3c(cc2F)CCCC(=O)N3C)n1
R. CC(CO)n1cnnc1-c1cccc(NC(=O)c2cc3c(cc2F)CCCC(=O)N3)n1 (configuration not stated)
S. CC(C)n1cnnc1-c1cccc(NC(=O)c2cc3c(cc2F)OCC(=O)N3)n1
T. O=C(Nc1cccc(-c2nncn2CC2CC2)n1)c1cc2c(cc1F)OCc1cncn1-2
Task: # rank_down: sort by AUC(0-t) at 24 h, max first # format: label list in the order the request specifies
Result: S, T, Q, P, R

A. CC(C)n1cnnc1-c1cccc(NC(=O)c2cc3c(cc2F)CCC(=O)N3)c1
B. O=C1CCCc2cc(F)c(C(=O)Nc3cccc(-c4nncn4C4CC4)n3)cc2N1
C. O=C(Nc1cccc(-c2nncn2CC2CC2)c1)c1cc2c(cc1F)OCc1cncn1-2
D. CC(C)n1cnnc1-c1cccc(NC(=O)c2cc3c(cc2F)OCC(=O)N3C)n1
Task: # rank_down: sort by AUC(0-t) at 24 h, max first # format: label list in the order the request specifies
Result: D, B, C, A

a. CC(CO)n1cnnc1-c1cccc(NC(=O)c2cc3c(cc2F)CCCC(=O)N3C)n1 (configuration not stated)
b. CC(C)n1cnnc1-c1cccc(NC(=O)c2cc3c(cc2F)CCCC(=O)N3)c1
Task: // task: argmin of AUC(0-t) at 24 h over [ a , b ] Please reply using the label of the selected record.
Result: a
(a: 216 ng·h/mL, b: 320 ng·h/mL)

P. CC(C)n1cnnc1-c1cccc(NC(=O)c2cc3c(cc2F)C(C)(C)CC(=O)N3)n1
Q. CC(C)n1cnnc1-c1cccc(NC(=O)c2cc3c(cc2F)CCCC(=O)N3C)c1
Task: // task: argmin of AUC(0-t) at 24 h over [ P , Q ] Please reply using the label of the selected record.
Result: Q
(Q: 449 ng·h/mL, P: 1200 ng·h/mL)
